Every entry's value here was drawn from ChEMBL document CHEMBL1201862.

system: HL-60; experiment: NCI tumour cell line growth inhibition, 48 h
Activity calls are given as the source filed them. Rule as the data show it: active = GI50 up to about 1.1 µM and inactive = higher.
Classes used: active, inactive

{"COMPOUND": "CCOCNC(=O)N(COCC)COCC", "GROUP": "inactive"}
{"COMPOUND": "O=C1c2ccccc2C(=O)N1NC1=NCCN1", "GROUP": "inactive"}
{"COMPOUND": "CCC(C)C(N)C(=O)NC(CC(N)=O)C(=O)NC(CC(C)C)C(=O)NC(CCCCN)C(=O)NC(C)C(=O)NC(CC(C)C)C(=O)NC(C)C(=O)NC(C)C(=O)NC(CC(C)C)C(=O)NC(C)C(=O)NC(CCCCN)C(=O)NC(CCCCN)C(=O)NC(C(=O)NC(CC(C)C)C(N)=O)C(C)CC (stereo not given)", "GROUP": "inactive"}
{"COMPOUND": "Cc1c(/C=N/NC(=S)N2CCCCC2)c(=O)n(-c2ccccc2)n1C", "GROUP": "inactive"}
{"COMPOUND": "CCCCc1ccc(Nc2nc(S)c3[nH]cnc3n2)cc1", "GROUP": "inactive"}
{"COMPOUND": "Cc1cc2c(cc1C(=O)c1ccc(N)cc1)OCO2", "GROUP": "inactive"}
{"COMPOUND": "O=C1C2C3CC4C5C3C1C5C1(SCCS1)C42 (stereo not given)", "GROUP": "inactive"}
{"COMPOUND": "COc1cc(/C=C2\\N=C(c3ccccc3)N(c3ccc4c(c3)Sc3cc(N5C(=O)/C(=C/c6cc(OC)c(OC)c(OC)c6)N=C5c5ccccc5)ccc3N4)C2=O)cc(OC)c1OC", "GROUP": "inactive"}
{"COMPOUND": "O=C(CC(Cc1ccccc1)c1ccc(Oc2ccccc2)cc1)Nc1cccc(Cl)c1 (stereo not given)", "GROUP": "inactive"}
{"COMPOUND": "Cc1cc(=O)oc2c(C)c(O)ccc12", "GROUP": "inactive"}
{"COMPOUND": "Cc1ccc([N+](=O)[O-])c2c(NCCNC(=O)c3cc(C(=O)NCCNc4ccnc5c(C)ccc([N+](=O)[O-])c45)n(C)n3)ccnc12", "GROUP": "inactive"}
{"COMPOUND": "CC1=[N+](C)CCCN1C", "GROUP": "inactive"}
{"COMPOUND": "O=C1NC(=O)/C(=C/c2ccc(S(=O)(=O)N/N=C/c3ccc(Cl)cc3)cc2)N1", "GROUP": "inactive"}
{"COMPOUND": "Cc1nn(C(=O)c2ccncc2)c2c1C(c1ccc([N+](=O)[O-])cc1)SC(=N)N2 (stereo not given)", "GROUP": "inactive"}
{"COMPOUND": "CS(=O)(=O)Nc1ccc(Nc2c3ccccc3nc3ccccc23)cc1", "GROUP": "active"}
{"COMPOUND": "CC1=C(C(=O)Nc2cc(F)c(F)cc2F)C(c2cccc([N+](=O)[O-])c2)C(C(=O)Nc2ccccc2C(F)(F)F)=C(C)N1 (stereo not given)", "GROUP": "inactive"}
{"COMPOUND": "O=C(O)CCCc1ccc2c(c1)CC1(C2)Cc2cc3c(cc2C1)CCCC3", "GROUP": "inactive"}
{"COMPOUND": "COc1ccc(C[C@]23CCC(=O)N2CCc2cc(OC)c(O)cc23)cc1O", "GROUP": "inactive"}
{"COMPOUND": "COc1cccc2c1C(=O)C1=C(C2=O)C(O)CC(C)(C)O1 (stereo not given)", "GROUP": "inactive"}
{"COMPOUND": "O=[N+]([O-])c1ccc(C[P+]2(c3ccccc3)CCCCC2)cc1.[O-][Cl+3]([O-])([O-])[O-]", "GROUP": "inactive"}
{"COMPOUND": "N#Cc1c(Cl)c(C=O)c(=O)n2c1[nH]c1ccccc12", "GROUP": "inactive"}
{"COMPOUND": "CCOC(=O)C(=O)Nc1cccc(Cl)c1C", "GROUP": "inactive"}
{"COMPOUND": "NC(=S)N/N=C1\\C(=O)C=C(Nc2ccc(Cl)cc2Cl)c2ccccc21", "GROUP": "inactive"}
{"COMPOUND": "C[C@]12CC[C@H]3[C@@H](CC=C4C[C@@H](N5CCCC5)CC[C@@]43C)[C@@H]1C[C@H](N1CCCCC1)[C@@H]2O", "GROUP": "inactive"}
{"COMPOUND": "CC1(O)CCC2(C)C(=O)C1(C)CCC21OCCO1 (stereo not given)", "GROUP": "inactive"}
{"COMPOUND": "O=C1C(Br)=CC2([N+](=O)[O-])CCNC3=C(C4=NCCc5c[nH]c(c54)C3=O)C2=C1Br (stereo not given)", "GROUP": "active"}
{"COMPOUND": "CCCC(OCC)(OCC)OCC", "GROUP": "inactive"}
{"COMPOUND": "O=c1[nH]nc(Cc2ccccc2)n1/N=C/c1ccc([N+](=O)[O-])o1", "GROUP": "inactive"}
{"COMPOUND": "Cc1ccc(S(=O)(=O)OC[C@@H]2CO2)cc1", "GROUP": "inactive"}
{"COMPOUND": "COc1cc(-c2ccc(NC(=O)SCCC(=O)O)cc2OC)ccc1NC(=O)SCCC(=O)O", "GROUP": "inactive"}
{"COMPOUND": "Cc1ccccc1S(=O)(=O)Nn1cnc2ccc(S(=O)(=O)Nc3ccc(Cl)cc3)cc2c1=O", "GROUP": "inactive"}
{"COMPOUND": "CCOC(=O)C(NC(=O)C(CCCCNP(=O)(OCC)OCC)NC(=O)C(C)NC(C)=O)C(C)C (stereo not given)", "GROUP": "inactive"}
{"COMPOUND": "COC(=O)C1(C(=O)OC)N=C(C)OC1C(C)C (stereo not given)", "GROUP": "inactive"}
{"COMPOUND": "CCCCCCCCCCNC(=S)OCCCC", "GROUP": "inactive"}
{"COMPOUND": "COc1ccc(CNc2cc(OC)cc(OC)c2)cc1", "GROUP": "inactive"}
{"COMPOUND": "COc1cc2c(cc1O)CC[n+]1cc3c(OC)c(OC)ccc3cc1-2", "GROUP": "inactive"}
{"COMPOUND": "Nc1nc2cc(CNc3ccc(C(=O)NC(CCC(=O)O)C(=O)O)cc3)ccc2nc1-c1ccccc1 (stereo not given)", "GROUP": "inactive"}
{"COMPOUND": "C/C(=N\\O)c1ccc(OCc2cc(C(F)(F)F)cc(C(F)(F)F)c2)cc1", "GROUP": "inactive"}
{"COMPOUND": "O=[N+]([O-])c1ccc(Cl)cc1N/N=C/c1ccnc2ccccc12", "GROUP": "inactive"}
{"COMPOUND": "N#C/C(=C(/S)Nc1ccccc1)c1nc2ccccc2[nH]1", "GROUP": "inactive"}
